- Test system: EphA4 (Homo sapiens, UniProt P54764)
- Sequence (P54764 20-986): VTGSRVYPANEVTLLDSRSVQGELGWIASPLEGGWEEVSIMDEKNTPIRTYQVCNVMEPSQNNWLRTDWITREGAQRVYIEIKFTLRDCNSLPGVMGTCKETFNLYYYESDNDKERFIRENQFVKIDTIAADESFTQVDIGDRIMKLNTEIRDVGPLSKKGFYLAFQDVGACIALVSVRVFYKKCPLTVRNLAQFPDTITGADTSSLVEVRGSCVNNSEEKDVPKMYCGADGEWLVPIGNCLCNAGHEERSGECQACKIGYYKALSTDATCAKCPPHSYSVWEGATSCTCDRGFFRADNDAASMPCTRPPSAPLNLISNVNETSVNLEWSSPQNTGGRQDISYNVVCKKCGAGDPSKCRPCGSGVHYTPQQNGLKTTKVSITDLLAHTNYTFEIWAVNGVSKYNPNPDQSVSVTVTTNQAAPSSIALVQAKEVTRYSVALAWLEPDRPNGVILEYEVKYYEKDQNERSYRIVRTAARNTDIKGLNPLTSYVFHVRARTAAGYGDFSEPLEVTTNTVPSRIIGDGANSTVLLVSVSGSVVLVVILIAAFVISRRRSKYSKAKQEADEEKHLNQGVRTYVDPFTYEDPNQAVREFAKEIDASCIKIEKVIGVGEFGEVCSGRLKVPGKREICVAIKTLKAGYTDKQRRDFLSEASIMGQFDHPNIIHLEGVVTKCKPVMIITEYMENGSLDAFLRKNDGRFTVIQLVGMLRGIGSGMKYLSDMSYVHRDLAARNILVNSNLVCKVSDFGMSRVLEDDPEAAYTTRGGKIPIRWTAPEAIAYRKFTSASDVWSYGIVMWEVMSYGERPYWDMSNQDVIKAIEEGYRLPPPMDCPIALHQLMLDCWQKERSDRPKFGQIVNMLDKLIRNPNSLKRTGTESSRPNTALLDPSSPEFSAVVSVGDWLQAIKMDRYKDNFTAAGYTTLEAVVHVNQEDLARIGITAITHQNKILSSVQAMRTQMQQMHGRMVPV
- Protocol details: Eph receptor kinase activity assay (radiometric), EphA4
- Format: biochemical
- Settings: 10 nM compound; read-out: EphA4 % act 10 nM
Endpoint label: remaining activity at 0.01 µM (%)

COc1ccc(Cl)c(NC(=O)c2cnc3ccc(C4CCNCC4)cn23)c1 [compound 118] ... 87

P = CN(C)CC(=O)N1CCC(c2ccc3ncc(C(=O)Nc4ccccc4Cl)n3c2)CC1 [compound 119]
Q = NCc1ccc(-c2ccc3ncc(C(=O)Nc4ccccc4Cl)n3c2)cc1 [compound 109]
R = O=C(Nc1ccccc1Cl)c1cnc2ccc(-c3ccncc3)cn12 [compound 114]
Q: Order the 3 compounds from highest to lowest remaining activity at 0.01 µM. The labels, placed in the requested order, form the answer.
Result: P, R, Q

###

- Test system: EphB3 (Homo sapiens, UniProt P54753)
- Sequence (P54753 34-998): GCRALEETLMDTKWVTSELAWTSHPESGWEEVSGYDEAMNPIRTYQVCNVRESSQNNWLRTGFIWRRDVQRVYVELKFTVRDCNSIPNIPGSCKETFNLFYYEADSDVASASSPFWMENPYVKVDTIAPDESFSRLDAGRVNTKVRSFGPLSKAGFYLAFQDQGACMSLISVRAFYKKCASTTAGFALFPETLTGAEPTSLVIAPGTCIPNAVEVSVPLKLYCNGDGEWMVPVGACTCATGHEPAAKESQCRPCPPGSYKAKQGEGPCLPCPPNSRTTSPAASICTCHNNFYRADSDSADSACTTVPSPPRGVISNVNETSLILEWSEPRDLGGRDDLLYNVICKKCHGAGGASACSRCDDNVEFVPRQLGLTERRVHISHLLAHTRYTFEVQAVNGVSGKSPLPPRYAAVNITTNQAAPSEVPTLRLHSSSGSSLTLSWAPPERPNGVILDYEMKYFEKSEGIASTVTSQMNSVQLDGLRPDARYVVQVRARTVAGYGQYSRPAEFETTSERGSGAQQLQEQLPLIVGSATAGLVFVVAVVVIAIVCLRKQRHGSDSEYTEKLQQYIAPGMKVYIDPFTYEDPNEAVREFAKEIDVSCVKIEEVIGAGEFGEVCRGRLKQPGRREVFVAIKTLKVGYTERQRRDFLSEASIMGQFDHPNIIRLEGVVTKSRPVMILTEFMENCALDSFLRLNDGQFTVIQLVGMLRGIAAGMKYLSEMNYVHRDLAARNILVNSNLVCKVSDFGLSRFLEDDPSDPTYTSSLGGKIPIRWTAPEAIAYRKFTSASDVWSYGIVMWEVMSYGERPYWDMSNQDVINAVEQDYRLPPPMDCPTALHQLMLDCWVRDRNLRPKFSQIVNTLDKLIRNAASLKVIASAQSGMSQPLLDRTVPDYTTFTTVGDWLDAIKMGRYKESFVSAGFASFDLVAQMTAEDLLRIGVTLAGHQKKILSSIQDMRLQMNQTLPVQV
- Protocol details: EphB3 radiometric kinase activity assay (33P ATP filter binding)
- Type: biochemical
- Settings: 10 nM compound; read-out: EphB3 % act 10 nM
Endpoint label: remaining activity at 0.01 µM (%)

Example cases with answers are listed next.
O=C(Nc1ccccc1Cl)c1cnc2ccc(-c3cccnc3)cn12 ... 49
COc1ccc(-c2ccc3ncc(C(=O)Nc4ccccc4Cl)n3c2)cc1 ... 92.4
O=C(Nc1ccccc1Cl)c1cnc2ccc(C3CCNCC3)cn12 ... 37
Cc1ccccc1-c1ccc2ncc(C(=O)Nc3ccccc3Cl)n2c1 ... 132
COc1ccccc1-c1ccc2ncc(C(=O)Nc3ccccc3Cl)n2c1 ... 80.9
COc1cccc(NC(=O)c2cnc3ccc(C4CCNCC4)cn23)c1Cl ... 110

A = O=C(Nc1ccccc1Cl)c1cnc2ccc(-c3ccncc3)cn12
B = COc1cccc(-c2ccc3ncc(C(=O)Nc4ccccc4Cl)n3c2)c1
Q: Quick one: lower remaining activity at 0.01 µM, A or B ? Reply with the label of the item you choose.
Result: A
(A: 52%, B: 103%)

1 = NCc1ccc(-c2ccc3ncc(C(=O)Nc4ccccc4Cl)n3c2)cc1
2 = NCc1cccc(-c2ccc3ncc(C(=O)Nc4ccccc4Cl)n3c2)c1
3 = Cc1cccc(-c2ccc3ncc(C(=O)Nc4ccccc4Cl)n3c2)c1
Q: Arrange by remaining activity at 0.01 µM, high to low. Labels, ranked as asked.
Result: 3, 2, 1

###

- Test system: EphA2 (Homo sapiens, UniProt P29317)
- Sequence (P29317 24-976): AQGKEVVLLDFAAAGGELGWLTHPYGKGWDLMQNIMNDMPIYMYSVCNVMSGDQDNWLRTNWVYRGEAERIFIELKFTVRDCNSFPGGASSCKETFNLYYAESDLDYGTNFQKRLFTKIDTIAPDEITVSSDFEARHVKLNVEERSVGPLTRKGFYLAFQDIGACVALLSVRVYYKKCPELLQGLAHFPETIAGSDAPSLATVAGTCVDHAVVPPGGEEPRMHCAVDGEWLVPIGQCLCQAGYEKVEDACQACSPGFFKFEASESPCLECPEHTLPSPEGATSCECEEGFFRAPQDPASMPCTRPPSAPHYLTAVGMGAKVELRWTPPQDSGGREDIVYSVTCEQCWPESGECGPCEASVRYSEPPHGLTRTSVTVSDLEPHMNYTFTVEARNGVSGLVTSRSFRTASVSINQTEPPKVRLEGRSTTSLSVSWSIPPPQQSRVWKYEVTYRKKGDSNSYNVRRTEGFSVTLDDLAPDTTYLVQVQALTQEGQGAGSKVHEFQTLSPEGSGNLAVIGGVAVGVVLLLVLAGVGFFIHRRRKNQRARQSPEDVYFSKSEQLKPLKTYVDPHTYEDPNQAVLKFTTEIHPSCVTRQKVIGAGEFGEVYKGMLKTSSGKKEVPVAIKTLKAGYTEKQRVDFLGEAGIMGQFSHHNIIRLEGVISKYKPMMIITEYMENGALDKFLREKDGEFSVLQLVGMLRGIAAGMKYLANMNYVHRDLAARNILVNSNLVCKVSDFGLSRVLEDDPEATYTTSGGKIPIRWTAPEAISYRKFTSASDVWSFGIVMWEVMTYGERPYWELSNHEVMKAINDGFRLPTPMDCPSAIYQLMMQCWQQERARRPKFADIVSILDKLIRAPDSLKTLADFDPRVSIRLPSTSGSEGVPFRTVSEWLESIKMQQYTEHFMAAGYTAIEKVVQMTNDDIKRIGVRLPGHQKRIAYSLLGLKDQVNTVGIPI
- Protocol details: Eph receptor kinase activity assay (radiometric), EphA2
- Type: biochemical
- Settings: 10 nM compound; read-out: EphA2 % act 10 nM
Endpoint label: remaining activity at 0.01 µM (%)

Known remaining activity at 0.01 µM results, listed for orientation:
NC(=O)c1cccc(-c2ccc3ncc(C(=O)Nc4ccccc4Cl)n3c2)c1 [compound 110] ... 71
NCc1ccc(-c2ccc3ncc(C(=O)Nc4ccccc4Cl)n3c2)cc1 [compound 109] ... 77
O=C(Nc1ccccc1Cl)c1cnc2ccc(-c3ccncc3)cn12 [compound 114] ... 51

1 = CN(C)CC(=O)N1CCC(c2ccc3ncc(C(=O)Nc4ccccc4Cl)n3c2)CC1 [compound 119]
2 = Cc1cccc(-c2ccc3ncc(C(=O)Nc4ccccc4Cl)n3c2)c1 [compound 105]
Q: # argmax over remaining activity at 0.01 µM for candidates 1 and 2 Answer format: the label of the selected item.
Result: 2

a = COc1cccc(-c2ccc3ncc(C(=O)Nc4ccccc4Cl)n3c2)c1 [compound 103]
b = Cc1ccccc1-c1ccc2ncc(C(=O)Nc3ccccc3Cl)n2c1 [compound 106]
Q: Dear colleague, could you let me know whether a or b has the lower recorded remaining activity at 0.01 µM? Thanks. Reply briefly: the label of your chosen item.
Result: a

###

- Protocol details: Mouse liver microsome stability
- Type: in vitro ADME
- Settings: mouse liver microsomes; read-out: mouse liver microsome stability T1/2
Endpoint label: half-life

The reported half-life of the molecule O=C(Nc1ccccc1Cl)c1cnc2ccc(C3CCNCC3)cn12 [A38] was > 5 h

###

- Test system: UniProt:P29317
- Protocol details: Eph receptor kinase activity assay (radiometric), EphA2
- Assay type: biochemical
- Settings: 30 nM compound; read-out: EphA2 % act 30 nM
Endpoint label: remaining activity at 0.03 µM (%)

O=C(Nc1ccccc1Cl)c1cnc2ccc(-c3ccccc3O)cn12 ... 84
Cc1cccc(-c2ccc3ncc(C(=O)Nc4ccccc4Cl)n3c2)c1 ... 88.1
COc1ccccc1-c1ccc2ncc(C(=O)Nc3ccccc3Cl)n2c1 ... 65.4
COc1cccc(NC(=O)c2cnc3ccc(C4CCNCC4)cn23)c1Cl ... 83.8
Cc1ccc(-c2ccc3ncc(C(=O)Nc4ccccc4Cl)n3c2)cc1 ... 86
CN(C)CC(=O)N1CCC(c2ccc3ncc(C(=O)Nc4ccccc4Cl)n3c2)CC1 ... 61.2
COc1ccc(-c2ccc3ncc(C(=O)Nc4ccccc4Cl)n3c2)cc1 ... 69.4
COc1ccc(Cl)c(NC(=O)c2cnc3ccc(C4CCNCC4)cn23)c1 ... 83.5
Cc1ccccc1-c1ccc2ncc(C(=O)Nc3ccccc3Cl)n2c1 ... 78.9
COc1cccc(-c2ccc3ncc(C(=O)Nc4ccccc4Cl)n3c2)c1 ... 75.3

###

- Test system: UniProtKB P29317
- Protocol details: Eph receptor kinase activity assay (radiometric), EphA2
- Assay type: biochemical
- Settings: Table 3, Example 13
Endpoint label: IC50 (nM)
Please give a number only; it is taken to be in nM.

The value of IC50 measured for the compound COc1ccc(Cl)c(NC(=O)c2cnc3ccc(C4CCNCC4)cn23)c1 [compound 118] turned out to be 288

###

- Test system: EphA4 (Homo sapiens)
- Protocol details: Eph receptor kinase activity assay (radiometric), EphA4
- Format: biochemical
- Settings: 10 nM compound; read-out: EphA4 % act 10 nM
Endpoint label: remaining activity at 0.01 µM (%)

Solved cases (2 shown):
COc1ccccc1-c1ccc2ncc(C(=O)Nc3ccccc3Cl)n2c1 ... 100
O=C(Nc1ccccc1Cl)c1cnc2ccc(-c3ccccn3)cn12 ... 50

1 = NCc1cccc(-c2ccc3ncc(C(=O)Nc4ccccc4Cl)n3c2)c1
2 = Cc1ccccc1-c1ccc2ncc(C(=O)Nc3ccccc3Cl)n2c1
3 = O=C(Nc1ccccc1Cl)c1cnc2ccc(-c3cccnc3)cn12
Q: Sort these molecules on remaining activity at 0.01 µM so the largest reading comes first. Returns: the labels listed in the requested order.
Result: 2, 3, 1
(2: 83.8%, 3: 53%, 1: 36%)

###

- Test system: EphA4 (Homo sapiens, UniProt P54764)
- Protocol details: Eph receptor kinase activity assay (radiometric), EphA4
- Type: biochemical
- Settings: Table 2, Example 12
Endpoint label: IC50 (nM)

O=C(Nc1ccccc1Cl)c1cnc2ccc(-c3ccccc3O)cn12 [compound 116] ... 248

1 = Cc1ccccc1-c1ccc2ncc(C(=O)Nc3ccccc3Cl)n2c1 [compound 106]
2 = COc1ccccc1-c1ccc2ncc(C(=O)Nc3ccccc3Cl)n2c1 [compound 101]
Q: Consider entries 1 and 2 . Which has the numerically lower IC50? Write down the label of the entry you select.
Result: 1

###

- Test system: EphB3 (Homo sapiens)
- Protocol details: EphB3 radiometric kinase activity assay (33P ATP filter binding)
- Type: biochemical
- Settings: Example 14; read-out: IC50 (μM), EphB3 receptor kinase inhibitory activity
Endpoint label: IC50 (µM)

Some entries whose results are on file:
O=C(Nc1cccc(F)c1Cl)c1cnc2ccc(C3CCNCC3)cn12 ... 6
O=C(Nc1cccc2c1CCO2)c1cnc2ccc(C3CCNCC3)cn12 ... 84
Cc1ccccc1-c1ccc2ncc(C(=O)Nc3ccccc3Cl)n2c1 ... 0.13
O=C(Nc1ccncc1Cl)c1cnc2ccc(C3CCNCC3)cn12 ... 8.1

P = O=C(Nc1ncccc1Cl)c1cnc2ccc(C3CCNCC3)cn12
Q = CN1CCC(c2ccc3ncc(C(=O)Nc4ccccc4Cl)n3c2)CC1
Q: Parameter metric = IC50. Return the lower-valued option from P and Q . Indicate which entry you chose by stating its label.
Result: Q
(Q: 0.089 µM, P: 2.9 µM)

###

- Test system: UniProt:P29317
- Protocol details: Eph receptor kinase activity assay (radiometric), EphA2
- Assay type: biochemical
- Settings: 300 nM compound; read-out: EphA2 % act 300 nM
Endpoint label: remaining activity at 0.3 µM (%)

Completed entries (count: 5):
O=C(Nc1ccccc1Cl)c1cnc2ccc(-c3ccncc3)cn12 ... 14
O=C(Nc1ccccc1Cl)c1cnc2ccc(-c3ncccn3)cn12 ... 40
O=C(Nc1ccccc1Cl)c1cnc2ccc(-c3ccccn3)cn12 ... 14
O=C(Nc1ccccc1Cl)c1cnc2ccc(-c3cccnc3)cn12 ... 17
NCc1cccc(-c2ccc3ncc(C(=O)Nc4ccccc4Cl)n3c2)c1 ... 11

1 = NC(=O)c1cccc(-c2ccc3ncc(C(=O)Nc4ccccc4Cl)n3c2)c1
2 = NCc1ccc(-c2ccc3ncc(C(=O)Nc4ccccc4Cl)n3c2)cc1
Q: Hi, I'm comparing 1 with 2 and wondering which one has the bigger number for remaining activity at 0.3 µM. Any idea? Select an item and report its label.
Result: 1
(1: 21%, 2: 0%)
